Biological target: Receptor tyrosine-protein kinase erbB-2 (Homo sapiens);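 further: each value is the mean percent inhibition of ERBB2 over replicate measurements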
Details: at 0.1 µM
reported-metric: inhibition

Reference set, count: 9
smiles-entry: COc1cc(Nc2ncc(-c3ccccc3)o2)cc(OC)c1
inhibition: 2.1%
--
smiles-entry: c1cnn2ncc(-c3ccnc(NCCCN4CCOCC4)n3)c2c1
inhibition: 1.75%
--
smiles-entry: Fc1cccc(COc2ccc(Nc3ncncc3C#Cc3ccccc3)cc2Cl)c1
inhibition: 3.69%
--
smiles-entry: Cc1c2ccc(N(C)c3ccnc(Nc4cccc(S(N)(=O)=O)c4)n3)cc2nn1C
inhibition: 1.55%
--
smiles-entry: COC(=O)Nc1nc2ccc(Oc3ccc(NC(=O)Nc4cc(C(F)(F)F)ccc4F)cc3)cc2s1
inhibition: -0.44%
--
smiles-entry: COc1c(C(N)=O)cc(-c2ccc(Cl)cc2)cc1-c1ccc(S(N)(=O)=O)cc1
inhibition: 1.74%
--
smiles-entry: c1ccc(-c2n[nH]cc2-c2ccnc(-c3ccc(OCCn4ccnc4)cc3)c2)nc1
inhibition: 0.33%
--
smiles-entry: CS(=O)(=O)Nc1ccc(-c2cc(-c3ccccc3)cc(C(N)=O)c2N)cc1
inhibition: 1.08%
--
smiles-entry: O=C(O[C@H]1CN[C@H](C#Cc2cc3ncnc(Nc4ccc5c(cnn5Cc5ccccc5)c4)c3s2)C1)N1CCOCC1
inhibition: 6.21%

Note: attention shifts to another entry.
Briefly, inhibition measured for `CN1CCC(n2cnc(-c3ccc(F)cc3)c2-c2ccnc(NCCO)n2)CC1` : 0.93%

====

Target: Ribosomal protein S6 kinase alpha-5 (Homo sapiens) (UniProt O75582);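 further: mean inhibition of MSK1 reported, from a GSK PKIS inhibitor set screen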
Sequence (O75582 whole entry, looked up): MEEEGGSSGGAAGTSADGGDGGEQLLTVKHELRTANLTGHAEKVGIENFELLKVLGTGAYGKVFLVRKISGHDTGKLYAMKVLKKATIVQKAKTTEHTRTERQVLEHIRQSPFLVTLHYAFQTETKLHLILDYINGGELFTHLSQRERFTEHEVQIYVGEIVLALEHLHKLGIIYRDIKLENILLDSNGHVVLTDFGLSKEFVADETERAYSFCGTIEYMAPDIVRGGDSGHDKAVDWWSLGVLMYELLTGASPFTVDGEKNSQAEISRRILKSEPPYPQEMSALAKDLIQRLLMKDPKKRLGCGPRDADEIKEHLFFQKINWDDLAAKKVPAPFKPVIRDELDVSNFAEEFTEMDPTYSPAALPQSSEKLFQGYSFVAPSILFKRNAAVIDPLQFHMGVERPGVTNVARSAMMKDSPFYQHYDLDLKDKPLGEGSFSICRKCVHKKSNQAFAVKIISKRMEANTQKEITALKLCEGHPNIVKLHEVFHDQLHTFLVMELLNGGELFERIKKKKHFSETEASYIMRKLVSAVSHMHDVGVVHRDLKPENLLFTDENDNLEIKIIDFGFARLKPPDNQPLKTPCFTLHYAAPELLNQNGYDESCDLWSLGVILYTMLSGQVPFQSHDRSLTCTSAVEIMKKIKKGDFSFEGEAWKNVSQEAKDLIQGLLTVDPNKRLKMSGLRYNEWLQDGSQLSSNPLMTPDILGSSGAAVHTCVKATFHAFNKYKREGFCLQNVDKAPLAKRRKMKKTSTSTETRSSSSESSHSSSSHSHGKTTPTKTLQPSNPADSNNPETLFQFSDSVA
Conditions: at 0.1 µM
reported-metric: inhibition (%)
Numeric answer only, unit % assumed.

Reference set, count: 2
compound: CCS(=O)(=O)c1ccc(OC)c(Nc2ncc(-c3cccc(C(C)=O)c3)o2)c1
reported-metric: inhibition
result-units: %
numeric-result: 2.8
//
compound: Fc1ccc(Nc2nccc(-c3c(-c4ccc(C(F)(F)F)cc4)nn4ncccc34)n2)cc1F
reported-metric: inhibition
result-units: %
numeric-result: 2.66

Briefly, inhibition measured for `CN(C)CCNC(=O)Nc1ccc(N(C)c2ccnc(Nc3ccc(CS(C)(=O)=O)cc3)n2)cc1` : 3.26

Briefly, inhibition measured for `CCn1c(-c2nonc2N)nc2cncc(C(=O)NCCNC)c21` : 55.2

Briefly, inhibition measured for `NS(=O)(=O)c1ccc(N/N=C2\C(=O)Nc3cccc(CCc4ccncc4)c32)cc1` : -0.75

Briefly, inhibition measured for `OCCCNc1nccc(-c2c(-c3ccc(F)cc3)nn3cc(C(F)(F)F)ccc23)n1` : 4.64

====

Entries and their inhibition values follow.
Molecular target: Ribosomal protein S6 kinase alpha-1 (Homo sapiens) (UniProt Q15418)
Sequence (Q15418 whole entry): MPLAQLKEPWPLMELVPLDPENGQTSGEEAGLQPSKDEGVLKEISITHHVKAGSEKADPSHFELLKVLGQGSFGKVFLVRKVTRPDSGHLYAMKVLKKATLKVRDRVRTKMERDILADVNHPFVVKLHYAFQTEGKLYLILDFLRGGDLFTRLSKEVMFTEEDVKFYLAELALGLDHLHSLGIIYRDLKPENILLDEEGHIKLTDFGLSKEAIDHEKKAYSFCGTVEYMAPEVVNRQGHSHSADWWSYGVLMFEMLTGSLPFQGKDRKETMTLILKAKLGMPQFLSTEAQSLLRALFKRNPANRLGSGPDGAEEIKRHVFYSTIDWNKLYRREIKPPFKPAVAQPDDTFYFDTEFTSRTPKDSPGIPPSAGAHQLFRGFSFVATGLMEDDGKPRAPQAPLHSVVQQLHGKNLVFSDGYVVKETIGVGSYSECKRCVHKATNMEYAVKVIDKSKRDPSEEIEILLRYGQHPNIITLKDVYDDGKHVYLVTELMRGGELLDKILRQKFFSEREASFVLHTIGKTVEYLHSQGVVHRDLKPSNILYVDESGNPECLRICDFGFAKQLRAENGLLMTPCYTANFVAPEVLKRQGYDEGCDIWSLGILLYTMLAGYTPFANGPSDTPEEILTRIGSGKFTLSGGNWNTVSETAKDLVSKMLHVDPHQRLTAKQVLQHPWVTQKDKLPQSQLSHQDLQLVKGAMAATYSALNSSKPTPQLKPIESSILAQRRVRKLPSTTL
Conditions: at 0.1 µM
Numeric answer only, unit % assumed.

compound: CC1(C)CC(n2cnc(-c3ccc(F)cc3)c2-c2ccnc(N)n2)CC(C)(C)N1
test-target: Ribosomal protein S6 kinase alpha-1 (Homo sapiens) (UniProt Q15418)
inhibition [%]: 1.07
--
compound: O=C1Nc2ccccc2/C1=C1\CCc2cc(O)ccc21
test-target: Ribosomal protein S6 kinase alpha-1 (Homo sapiens) (UniProt Q15418)
inhibition [%]: 5.76
--
compound: CS(=O)(=O)CCNCc1ccc(-c2ccc3ncnc(Nc4ccc(OCc5ccccc5)cc4)c3c2)o1
test-target: Ribosomal protein S6 kinase alpha-1 (Homo sapiens) (UniProt Q15418)
inhibition [%]: 2.15
--
compound: CNC(=O)c1sc(-n2cnc3cc(OC)c(OC)cc32)cc1OCc1ccccc1C(F)(F)F
test-target: Ribosomal protein S6 kinase alpha-1 (Homo sapiens) (UniProt Q15418);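 further: values are mean percent inhibition of RSK1 measured in the GSK PKIS kinase inhibitor set screen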
inhibition [%]: 1.1

Briefly, inhibition measured for `CCOc1ccc2c(-c3ccnc(Nc4cc(OC)cc(C(F)(F)F)c4)n3)cnn2n1` : -0.43

Briefly, inhibition measured for `NS(=O)(=O)c1ccc(N/N=C2\C(=O)Nc3ccc(C(=O)NCc4ccncc4)cc32)cc1` : 1.77

Briefly, inhibition measured for `COC(=O)Nc1nc2cc(Oc3ccc(NC(=O)Nc4ccccc4)cc3)ccc2[nH]1` : 1.66

Briefly, inhibition measured for CC1=C(C(=O)Nc2ccc3[nH]nc(C)c3c2)C(c2ccc(C(F)(F)F)cc2)CC(=O)N1 (stereo not drawn) : 2.72

Values compiled from ChEMBL document CHEMBL1961873.
